# System: Wolbachia pipientis
# Assay Protocol: Anti-Wolbachia Cell-Based Screen
# Format: functional
# Set-up: scale not given: in the data most compounds retested in dose-response had high values
# Stated Conditions: 5 µM
The campaign covered roughly 48,000 compounds. About 13,000 (27%) showed an effect of 50% or more. The list shows a part of the results.
Reported Percent Effect is given for each of the following compounds.
Your answer should be a plain number; it is taken to be in %.

CC(C)c1cc(C(=O)NCC2CCCN(C(C)C)C2)n(C)n1.Cl (stereo unspecified) = 153.6
CCc1c(C(=O)N2CCC3(CC(=O)NC3=O)C2)csc1C (stereo unspecified) = 4.433
CC(C)Cc1cc(C(=O)NCC2CCCN(c3ccccn3)C2)on1 (stereo unspecified) = 8.718
CC(C)c1cc(C(=O)NCC2CCCN(c3ncccn3)C2)n(C)n1 (stereo unspecified) = 135
c1cnc(NCC2Cn3nnc(-c4ccsc4)c3CO2)nc1 (stereo unspecified) = -8.794

# query: Percent Effect of entry CCc1nnsc1C(=O)NCCC1CCCN(C(C)C)C1 (stereo unspecified)
8.592
